- TARGET OR SYSTEM: Cbl-B (Homo sapiens, UniProt Q13191)
- Construct: MSD-Based Assay for Degradation of Cbl-B in THP-1 Cells; endogenous in cells; host or cells: THP-1 (title) / Jurkat (protocol text)
- Sequence (Q13191 whole entry): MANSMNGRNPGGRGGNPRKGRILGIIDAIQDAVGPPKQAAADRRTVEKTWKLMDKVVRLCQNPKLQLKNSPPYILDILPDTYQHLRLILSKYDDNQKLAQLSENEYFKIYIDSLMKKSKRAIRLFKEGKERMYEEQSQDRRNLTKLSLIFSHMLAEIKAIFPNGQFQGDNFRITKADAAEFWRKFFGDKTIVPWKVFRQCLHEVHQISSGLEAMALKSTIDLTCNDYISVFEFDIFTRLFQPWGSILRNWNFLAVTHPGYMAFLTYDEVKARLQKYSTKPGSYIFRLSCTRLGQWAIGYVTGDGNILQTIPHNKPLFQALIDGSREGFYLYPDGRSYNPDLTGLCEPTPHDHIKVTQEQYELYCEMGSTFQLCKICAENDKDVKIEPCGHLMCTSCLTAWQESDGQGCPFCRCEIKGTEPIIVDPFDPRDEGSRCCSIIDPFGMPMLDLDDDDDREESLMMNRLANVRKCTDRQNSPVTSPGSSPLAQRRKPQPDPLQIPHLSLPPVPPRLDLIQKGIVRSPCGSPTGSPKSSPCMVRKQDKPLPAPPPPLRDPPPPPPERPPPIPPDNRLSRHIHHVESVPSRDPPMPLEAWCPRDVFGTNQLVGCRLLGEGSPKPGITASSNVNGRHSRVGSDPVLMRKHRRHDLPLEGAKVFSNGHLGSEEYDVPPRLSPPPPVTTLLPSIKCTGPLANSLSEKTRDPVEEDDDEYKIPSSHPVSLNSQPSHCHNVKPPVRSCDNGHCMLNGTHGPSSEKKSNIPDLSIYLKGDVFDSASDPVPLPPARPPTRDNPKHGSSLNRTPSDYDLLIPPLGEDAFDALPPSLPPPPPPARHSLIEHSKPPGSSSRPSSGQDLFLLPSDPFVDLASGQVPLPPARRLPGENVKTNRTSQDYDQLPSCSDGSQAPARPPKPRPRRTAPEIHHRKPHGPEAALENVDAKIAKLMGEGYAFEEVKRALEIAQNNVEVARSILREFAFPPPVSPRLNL
- EXPERIMENT DESCRIPTION: MSD-based assay for degradation of Cbl-B in THP-1 cells
- Format: cell-based
- SETTINGS: Cbl-B degradation, Jurkat cells seeded (heading: THP-1 cells), 24 hours incubation, MSD readout
List of DC50 values.

{"COMPOUND": "Cn1cnnc1[C@@H](c1cccc(-n2cc3c(C(F)(F)F)cc(CN4CCC(OCc5ccc(C6CCN(c7ccc8c(c7)CN([C@H]7CCC(=O)NC7=O)C8=O)CC6)cc5)CC4)cn3c2=O)c1)C1CCC1 (single isomer, unassigned) [Compound 214]", "DC50": "30 to 300 nM"}
{"COMPOUND": "Cn1cnnc1[C@@H](c1cccc(-n2cc3c(C(F)(F)F)cc(CN4CCC(O[C@H]5CCCN(C(=O)c6ccc(N7CCN(c8ccc9c(c8)CN([C@@H]8CCC(=O)NC8=O)C9=O)CC7)cc6)C5)CC4)cn3c2=O)c1)C1CCC1 (single isomer, unassigned) [Compound 247]", "DC50": "300 to 1000 nM"}
{"COMPOUND": "Cn1cnnc1[C@@H](c1cccc(-n2cc3c(C(F)(F)F)cc(CN4CCC[C@H](OCc5ccc(CN6CCN(c7ccc8c(c7)CN([C@H]7CCC(=O)NC7=O)C8=O)CC6)cc5)C4)cn3c2=O)c1)C1CCC1 [Compound 82]", "DC50": "< 30 nM"}
{"COMPOUND": "Cn1cnnc1[C@@H](c1cccc(-n2cc3c(C(F)(F)F)cc(CN4CCC(OC(=O)N5CCC(CN6CCN(c7ccc8c(c7)CN([C@H]7CCC(=O)NC7=O)C8=O)CC6)CC5)CC4)cn3c2=O)c1)C1CCC1 [Compound 238]", "DC50": "< 30 nM"}
{"COMPOUND": "Cn1cnnc1[C@@H](c1cccc(-n2cc3c(C(F)(F)F)cc(CN4CCN(CCc5ccc(N6CCN(c7ccc8c(c7)CN([C@@H]7CCC(=O)NC7=O)C8=O)CC6)cc5)CC4)cn3c2=O)c1)C1CCC1 (single isomer, unassigned) [Compound 125]", "DC50": "30 to 300 nM"}
{"COMPOUND": "Cn1cnnc1[C@@H](c1cccc(-n2cc3c(C(F)(F)F)cc(CN4CCC(OCCOCc5ccc(CC6CCN(c7ccc8c(c7)CN([C@H]7CCC(=O)NC7=O)C8=O)CC6)cc5)CC4)cn3c2=O)c1)C1CCC1 (single isomer, unassigned) [Compound 174]", "DC50": "< 30 nM"}
{"COMPOUND": "Cn1cnnc1[C@@H](c1cccc(-n2cc3c(C(F)(F)F)cc(CN4CCC(C(=O)N5CCC(CN6CCN(c7ccc8c(c7)CN(C7CCC(=O)NC7=O)C8=O)CC6)CC5)CC4)cn3c2=O)c1)C1CCC1 (stereo partly drawn) [Compound 44]", "DC50": "> 10000 nM"}
{"COMPOUND": "CN(CCN(C)C(=O)c1ccc(N2CCN(c3ccc4c(c3)CN([C@H]3CCC(=O)NC3=O)C4=O)CC2)cc1)Cc1cc(C(F)(F)F)c2cn(-c3cccc([C@H](c4nncn4C)C4CCC4)c3)c(=O)n2c1 (single isomer, unassigned) [Compound 140]", "DC50": "30 to 300 nM"}
{"COMPOUND": "Cn1cnnc1CC1(c2cccc(-n3cc4c(C(F)(F)F)cc(CN5CCC(OCCOCc6ccc(CNc7cccc8c7C(=O)N(C7CCC(=O)NC7=O)C8=O)cc6)CC5)cn4c3=O)c2)COC1 (stereo not drawn) [Compound 12]", "DC50": "> 10000 nM"}

All figures here come from patent US20250340552A1.
